// data source = patent US9163042B2

experiment: Rat oral pharmacokinetic study; format: in vivo, Sprague Dawley rats; settings: Sprague Dawley; female rat, single PO 30 mg/kg of compound 9, 5% TPGS/5% PVP-K30/50 mM Citrate pH 5, analyte 9a in plasma, mean ± SD
quantity: half-life (min)
Response body: numeric value in min, unit text excluded.

Briefly, half-life measured for "Cc1cc(F)ccc1Oc1cc(C(F)(F)F)ccc1C(=O)Nc1cc[nH]c(=O)c1" : 648

---

assay: Rat oral pharmacokinetic study; format: in vivo, Sprague Dawley rats; conditions: Sprague Dawley; female rat, single PO 1000 mg/kg of compound 9, 5% TPGS/5% PVP-K30/50 mM Citrate pH 5, analyte 9a in plasma, mean ± SD
quantity: Tmax

Briefly, Tmax measured for "Cc1cc(F)ccc1Oc1cc(C(F)(F)F)ccc1C(=O)Nc1cc[nH]c(=O)c1" : 13.3 h

---

experiment: Rat oral pharmacokinetic study; type: in vivo, Sprague Dawley rats; details: Sprague Dawley; female rat, single PO 1000 mg/kg of compound 9, 5% TPGS/5% PVP-K30/50 mM Citrate pH 5, analyte 9a in plasma, mean ± SD
quantity: AUC (µg·h/mL)
Response body: numeric value in µg·h/mL, unit text excluded.

Briefly, AUC measured for "Cc1cc(F)ccc1Oc1cc(C(F)(F)F)ccc1C(=O)Nc1cc[nH]c(=O)c1" : 345

---

assay: Aqueous solubility study; assay type: physicochemical; details: aqueous medium, simulated gastric fluid, thermodynamic from solid; pH 1; crystalline; ambient conditions, 24 hours; read-out: Solubility
quantity: solubility at 24 h (µg/mL)
Response body: numeric value in µg/mL, unit text excluded.

Briefly, solubility at 24 h measured for "Cc1cc(F)ccc1Oc1cc(C(F)(F)F)ccc1C(=O)Nc1ccn(COP(=O)(O)O)c(=O)c1" : 2

---

experiment: Rat IV pharmacokinetic study; format: in vivo, Sprague Dawley rats; settings: Sprague Dawley; male rat, single IV bolus 1 mg/kg of compound 9, DMI vehicle, analyte 9a in plasma
quantity: clearance (mL/min/kg)
Response body: numeric value in mL/min/kg, unit text excluded.

Briefly, clearance measured for Cc1cc(F)ccc1Oc1cc(C(F)(F)F)ccc1C(=O)Nc1cc[nH]c(=O)c1 [Compound 9a] : 18.7

---

experiment: Rat oral pharmacokinetic study; format: in vivo, Sprague Dawley rats; conditions: Sprague Dawley; female rat, single PO 300 mg/kg of compound 9, 5% TPGS/5% PVP-K30/50 mM Citrate pH 5, analyte 9a in plasma, mean ± SD
quantity: Tmax (h)
Response body: numeric value in h, unit text excluded.

Briefly, Tmax measured for "Cc1cc(F)ccc1Oc1cc(C(F)(F)F)ccc1C(=O)Nc1cc[nH]c(=O)c1" : 10.7

---

assay: Rat oral pharmacokinetic study; format: in vivo, Sprague Dawley rats; details: Sprague Dawley; female rat, single PO 100 mg/kg of compound 9, 5% TPGS/5% PVP-K30/50 mM Citrate pH 5, analyte 9a in plasma, mean ± SD
quantity: Cmax
Give the number first and the unit second.

Briefly, Cmax measured for Cc1cc(F)ccc1Oc1cc(C(F)(F)F)ccc1C(=O)Nc1cc[nH]c(=O)c1 [Compound 9a] : 5820 ng/mL

---

assay: Rat oral pharmacokinetic study; format: in vivo, Sprague Dawley rats; conditions: Sprague Dawley; male rat, single PO 640 mg/kg of compound 9, 5% TPGS/5% PVP-K30/50 mM Citrate pH 5, analyte 9a in plasma, mean ± SD
quantity: AUC
Give the number first and the unit second.

Briefly, AUC measured for Cc1cc(F)ccc1Oc1cc(C(F)(F)F)ccc1C(=O)Nc1cc[nH]c(=O)c1 [Compound 9a] : 74900 ng·h/mL

---

experiment: Rat oral pharmacokinetic study; type: in vivo, Sprague Dawley rats; conditions: Sprague Dawley; female rat, single PO 1000 mg/kg of compound 9, 5% TPGS/5% PVP-K30/50 mM Citrate pH 5, analyte 9a in plasma, mean ± SD
quantity: Cmax (ng/mL)
Response body: numeric value in ng/mL, unit text excluded.

Briefly, Cmax measured for "Cc1cc(F)ccc1Oc1cc(C(F)(F)F)ccc1C(=O)Nc1cc[nH]c(=O)c1" : 10600

---

experiment: Rat IV pharmacokinetic study; format: in vivo, Sprague Dawley rats; details: Sprague Dawley; male rat, single IV bolus 1 mg/kg of compound 9, DMI vehicle, analyte 9a in plasma; read-out: Vss
quantity: Vd (L/kg)
Response body: numeric value in L/kg, unit text excluded.

Briefly, Vd measured for Cc1cc(F)ccc1Oc1cc(C(F)(F)F)ccc1C(=O)Nc1cc[nH]c(=O)c1 [Compound 9a] : 3.77

---

assay: Rat oral pharmacokinetic study; type: in vivo, Sprague Dawley rats; details: Sprague Dawley; male rat, single PO 400 mg/kg of compound 9, 5% TPGS/5% PVP-K30/50 mM Citrate pH 5, analyte 9a in plasma, mean ± SD
quantity: Cmax (ng/mL)
Response body: numeric value in ng/mL, unit text excluded.

Briefly, Cmax measured for "Cc1cc(F)ccc1Oc1cc(C(F)(F)F)ccc1C(=O)Nc1cc[nH]c(=O)c1" : 3740

---

assay: Rat oral pharmacokinetic study; format: in vivo, Sprague Dawley rats; settings: Sprague Dawley; female rat, single PO 300 mg/kg of compound 9, 5% TPGS/5% PVP-K30/50 mM Citrate pH 5, analyte 9a in plasma, mean ± SD
quantity: Cmax

Briefly, Cmax measured for Cc1cc(F)ccc1Oc1cc(C(F)(F)F)ccc1C(=O)Nc1cc[nH]c(=O)c1 [Compound 9a] : 7900 ng/mL

---

assay: Rat oral pharmacokinetic study; format: in vivo, Sprague Dawley rats; conditions: Sprague Dawley; male rat, single PO 400 mg/kg of compound 9, 5% TPGS/5% PVP-K30/50 mM Citrate pH 5, analyte 9a in plasma, mean ± SD
quantity: half-life

Briefly, half-life measured for Cc1cc(F)ccc1Oc1cc(C(F)(F)F)ccc1C(=O)Nc1cc[nH]c(=O)c1 [Compound 9a] : 5.2 h

---

assay: Rat oral pharmacokinetic study; type: in vivo, Sprague Dawley rats; conditions: Sprague Dawley; female rat, single PO 30 mg/kg of compound 9, 5% TPGS/5% PVP-K30/50 mM Citrate pH 5, analyte 9a in plasma, mean ± SD
quantity: Tmax (h)
Response body: numeric value in h, unit text excluded.

Briefly, Tmax measured for "Cc1cc(F)ccc1Oc1cc(C(F)(F)F)ccc1C(=O)Nc1cc[nH]c(=O)c1" : 6.67

---

test: Aqueous solubility study; type: physicochemical; conditions: aqueous medium, aqueous buffer, thermodynamic from solid; pH 7; crystalline; ambient conditions, 24 hours; read-out: Solubility
quantity: solubility at 24 h (µg/mL)
Response body: numeric value in µg/mL, unit text excluded.

Briefly, solubility at 24 h measured for "Cc1cc(F)ccc1Oc1cc(C(F)(F)F)ccc1C(=O)Nc1ccn(COP(=O)(O)O)c(=O)c1" : 500

---

assay: Aqueous solubility study; type: physicochemical; conditions: aqueous medium, simulated gastric fluid, thermodynamic from solid; pH 1.2; crystalline; ambient conditions, 24 hours; read-out: Solubility
quantity: solubility at 24 h

Briefly, solubility at 24 h measured for "Cc1cc(F)ccc1Oc1cc(C(F)(F)F)ccc1C(=O)Nc1cc[nH]c(=O)c1" : < 1 µg/mL

---

assay: Rat IV pharmacokinetic study; type: in vivo, Sprague Dawley rats; conditions: male, Sprague Dawley, rat, plasma, iv, 1 mg/kg, male rat, single IV bolus 1 mg/kg of compound 9, DMI vehicle, analyte 9a in plasma; read-out: AUCextra
quantity: AUC

Briefly, AUC measured for "Cc1cc(F)ccc1Oc1cc(C(F)(F)F)ccc1C(=O)Nc1cc[nH]c(=O)c1" : 611 ng·h/mL

---

assay: Aqueous solubility study; assay type: physicochemical; conditions: aqueous medium, aqueous buffer, thermodynamic from solid; pH 3.3; crystalline; ambient conditions, 24 hours; read-out: Solubility
quantity: solubility at 24 h
Give the number first and the unit second.

Briefly, solubility at 24 h measured for Cc1cc(F)ccc1Oc1cc(C(F)(F)F)ccc1C(=O)Nc1ccn(COP(=O)(O)O)c(=O)c1 [Compound 9] : 240 µg/mL

---

target: human Nav1.8 (Homo sapiens (Human), UniProt Q9Y5Y9); assay: E-VIPR optical membrane potential assay with electrical stimulation (NaV1.8 IC50 activity)
Sequence (Q9Y5Y9 whole entry): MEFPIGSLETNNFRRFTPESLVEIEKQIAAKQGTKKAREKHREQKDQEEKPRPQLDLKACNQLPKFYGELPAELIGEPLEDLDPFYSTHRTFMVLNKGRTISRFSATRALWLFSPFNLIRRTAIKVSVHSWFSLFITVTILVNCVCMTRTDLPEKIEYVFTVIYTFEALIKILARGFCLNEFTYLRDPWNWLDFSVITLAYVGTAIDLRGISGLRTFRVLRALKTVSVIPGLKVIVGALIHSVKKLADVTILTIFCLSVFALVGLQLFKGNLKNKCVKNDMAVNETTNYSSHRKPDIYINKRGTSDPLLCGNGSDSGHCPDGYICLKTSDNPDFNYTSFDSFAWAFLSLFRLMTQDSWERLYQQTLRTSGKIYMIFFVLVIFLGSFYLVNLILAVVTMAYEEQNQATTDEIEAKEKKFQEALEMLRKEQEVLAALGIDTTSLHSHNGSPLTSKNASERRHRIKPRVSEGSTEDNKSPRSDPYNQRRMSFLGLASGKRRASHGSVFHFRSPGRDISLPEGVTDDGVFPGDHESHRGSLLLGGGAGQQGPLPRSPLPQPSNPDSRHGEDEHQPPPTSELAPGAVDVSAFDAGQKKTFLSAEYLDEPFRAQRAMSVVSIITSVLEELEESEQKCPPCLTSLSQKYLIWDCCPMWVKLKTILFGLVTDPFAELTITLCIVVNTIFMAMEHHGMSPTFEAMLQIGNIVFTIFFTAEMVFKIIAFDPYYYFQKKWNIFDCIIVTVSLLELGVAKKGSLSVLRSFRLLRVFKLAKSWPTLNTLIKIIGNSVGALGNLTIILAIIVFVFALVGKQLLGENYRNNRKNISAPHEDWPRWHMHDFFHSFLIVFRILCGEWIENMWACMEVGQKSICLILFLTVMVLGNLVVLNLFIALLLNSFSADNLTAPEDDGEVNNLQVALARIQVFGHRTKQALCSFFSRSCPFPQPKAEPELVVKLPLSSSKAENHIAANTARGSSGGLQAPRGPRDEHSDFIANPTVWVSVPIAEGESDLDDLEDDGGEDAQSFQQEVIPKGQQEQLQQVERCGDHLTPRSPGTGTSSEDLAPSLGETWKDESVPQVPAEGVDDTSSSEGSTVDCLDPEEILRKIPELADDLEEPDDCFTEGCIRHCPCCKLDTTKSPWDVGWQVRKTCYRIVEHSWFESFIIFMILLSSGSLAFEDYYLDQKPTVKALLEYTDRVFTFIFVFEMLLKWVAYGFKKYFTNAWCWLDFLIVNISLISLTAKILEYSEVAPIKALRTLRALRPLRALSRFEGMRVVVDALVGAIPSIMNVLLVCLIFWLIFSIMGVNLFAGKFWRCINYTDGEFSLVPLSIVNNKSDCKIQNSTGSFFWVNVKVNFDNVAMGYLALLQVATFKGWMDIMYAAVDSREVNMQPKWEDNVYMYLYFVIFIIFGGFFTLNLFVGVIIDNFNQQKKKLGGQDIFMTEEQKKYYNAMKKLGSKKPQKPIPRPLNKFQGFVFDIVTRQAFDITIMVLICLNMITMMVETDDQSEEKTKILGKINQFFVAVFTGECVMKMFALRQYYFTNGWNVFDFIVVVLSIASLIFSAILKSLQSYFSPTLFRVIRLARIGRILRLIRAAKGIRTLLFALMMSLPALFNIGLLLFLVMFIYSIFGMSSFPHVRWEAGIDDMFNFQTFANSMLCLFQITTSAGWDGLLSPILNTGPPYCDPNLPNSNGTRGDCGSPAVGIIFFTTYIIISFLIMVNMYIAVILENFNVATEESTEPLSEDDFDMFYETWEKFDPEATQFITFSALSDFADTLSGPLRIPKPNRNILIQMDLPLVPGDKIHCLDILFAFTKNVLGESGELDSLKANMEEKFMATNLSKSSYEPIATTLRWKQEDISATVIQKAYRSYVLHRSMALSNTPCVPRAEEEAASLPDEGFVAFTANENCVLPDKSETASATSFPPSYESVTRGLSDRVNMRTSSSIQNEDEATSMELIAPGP
Label key: rule met means IC50 under 300 nM; rule not met means IC50 of 300 nM or more.

Incoming: Hello, is IC50 of the following compound strictly smaller than 300 nM? O=C(Nc1ccn(COP(=O)(O)O)c(=O)c1)c1cc(C(F)(F)F)ccc1Oc1ccc(F)cc1 [Compound 18]
Outgoing: rule not met

Incoming: Hello, is IC50 of the following compound strictly smaller than 300 nM? COc1cc(F)ccc1Oc1cc(Cl)c(Cl)cc1C(=O)Nc1ccn(COP(=O)(O)O)c(=O)c1 [Compound 1]
Outgoing: rule met

Incoming: Hello, is IC50 of the following compound strictly smaller than 300 nM? COc1cc(F)ccc1Oc1cc(C(F)(F)C(F)(F)F)ccc1C(=O)Nc1ccn(COP(=O)(O)O)c(=O)c1 [Compound 2]
Outgoing: rule met

Incoming: Hello, is IC50 of the following compound strictly smaller than 300 nM? Cc1cc(F)ccc1Oc1cc(Cl)ccc1C(=O)Nc1ccn(COP(=O)(O)O)c(=O)c1 [Compound 13]
Outgoing: rule not met

Incoming: Hello, is IC50 of the following compound strictly smaller than 300 nM? Cc1cc(F)ccc1Oc1cc(C(F)(F)F)ccc1C(=O)Nc1ccn(COP(=O)(O)O)c(=O)c1 [Compound 9]
Outgoing: rule not met

Incoming: Hello, is IC50 of the following compound strictly smaller than 300 nM? Cc1cc(F)ccc1Oc1ccc(C(F)(F)F)cc1C(=O)Nc1ccn(COP(=O)(O)O)c(=O)c1 [Compound 10]
Outgoing: rule met
